These data points were gathered from ChEMBL document CHEMBL1201862.

biological target: Cytochrome P450 3A4 (Homo sapiens);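 also: CYP3A4 tested as one member of a cytochrome P450 panel screen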
Sequence (P08684 whole entry): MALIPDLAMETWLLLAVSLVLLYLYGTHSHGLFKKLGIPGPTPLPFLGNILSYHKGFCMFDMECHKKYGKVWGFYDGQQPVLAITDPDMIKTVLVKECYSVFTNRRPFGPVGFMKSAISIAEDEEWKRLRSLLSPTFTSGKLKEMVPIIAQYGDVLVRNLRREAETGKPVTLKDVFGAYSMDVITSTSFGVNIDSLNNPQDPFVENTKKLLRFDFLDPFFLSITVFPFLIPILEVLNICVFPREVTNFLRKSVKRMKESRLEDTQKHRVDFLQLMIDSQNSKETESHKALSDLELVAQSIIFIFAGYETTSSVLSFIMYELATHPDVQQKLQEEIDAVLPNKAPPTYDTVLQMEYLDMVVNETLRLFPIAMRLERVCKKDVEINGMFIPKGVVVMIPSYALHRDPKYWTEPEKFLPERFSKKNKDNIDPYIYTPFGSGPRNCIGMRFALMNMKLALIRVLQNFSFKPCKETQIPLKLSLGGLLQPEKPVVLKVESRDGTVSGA
quantity.name: AC50

Below, each entry is followed by its recorded AC50 result.
# compound.smiles, AC50
measured = [
    ("c1cc(N2CCCC3(CCNCC3)C2)ccn1", "12.6 µM (inconclusive)"),
    ("COC(=O)C1=C(NC(=O)c2cccc(OC)c2)CCS1", "25.1 µM (inconclusive)"),
    ("Cn1c(=O)c(-c2cc(F)cc(F)c2)nc2cncnc21", "1.26 µM (inconclusive)"),
    ("CCOc1nn(-c2ccccc2)c(O)c1/C=N/c1ccc(Cl)cc1", "20 µM (inconclusive)"),
    ("CC1(C)CC(=O)C([C@H]2C3=C(CC(C)(C)CC3=O)Oc3ccccc32)C(=O)C1", "15.8 µM (inconclusive)"),
]

Field AC50 (Cytochrome P450 3A4 (Homo sapiens)), entry CO[C@@H]1/C=C\O[C@]2(C)Oc3c(C)c(O)c4c(O)c(cc(O)c4c3C2=O)NC(=O)/C(C)=C\C=C/[C@H](C)[C@@H](O)[C@H](C)[C@H](O)[C@H](C)[C@H](OC(C)=O)[C@@H]1C : 3.98 µM (inconclusive)

====

# maps each entry to its IC50
target: UniProt Q9UBT2; experiment: blockers of SAE1/SAE2–UBC9 SUMO transfer – biochemical, HTRF, uHTS, primary screen (AID 2006); type: protein-complex assay
Active and inactive are the calls of the source.

# compound, IC50
measured = [
    ("O=C(Nc1ccccc1)c1ccc2nc(-c3ccco3)c(-c3ccco3)nc2c1", "20.7 µM (active)"),
    ("COc1ccc(-n2c(CNc3ccc(C)cc3)nnc2SCC(=O)Nc2nc(-c3ccccc3)cs2)cc1", "21.9 µM (active)"),
]

The compound listed as O=[N+]([O-])c1ccc(O)c(/C=N/NC(=S)Nc2ccc(Cl)cc2Cl)c1 shows IC50 equal to 23.1 µM (active)

Just so you know, measured IC50 for O=C1c2ccccc2C(=O)C12OC2c1ccc(Cl)cc1 (centres undefined) came out at 21.2 µM (active)

====

target: Protein skinhead-1 (Caenorhabditis elegans); assay type: functional
Sequence (P34707 whole entry): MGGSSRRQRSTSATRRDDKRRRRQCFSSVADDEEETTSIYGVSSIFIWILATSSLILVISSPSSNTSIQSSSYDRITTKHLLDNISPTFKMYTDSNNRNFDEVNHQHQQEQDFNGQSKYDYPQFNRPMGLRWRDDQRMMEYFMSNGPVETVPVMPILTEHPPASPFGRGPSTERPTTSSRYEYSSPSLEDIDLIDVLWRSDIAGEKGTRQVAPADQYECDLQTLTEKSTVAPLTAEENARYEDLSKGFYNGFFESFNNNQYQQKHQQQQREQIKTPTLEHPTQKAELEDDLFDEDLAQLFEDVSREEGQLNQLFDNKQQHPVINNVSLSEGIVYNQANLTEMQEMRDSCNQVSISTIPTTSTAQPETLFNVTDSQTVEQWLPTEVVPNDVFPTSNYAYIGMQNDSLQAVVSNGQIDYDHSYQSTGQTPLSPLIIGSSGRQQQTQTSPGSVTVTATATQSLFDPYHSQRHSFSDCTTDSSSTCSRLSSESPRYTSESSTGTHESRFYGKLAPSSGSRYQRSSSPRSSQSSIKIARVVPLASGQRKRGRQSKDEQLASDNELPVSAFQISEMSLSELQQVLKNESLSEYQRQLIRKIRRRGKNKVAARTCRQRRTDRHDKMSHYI
Calls of active or inactive are those of the source.
Assign a class; possible classes are active, inactive

Please review the following examples before continuing.
# compound.smiles, assigned.class
records = [
    ("Brc1ccc(Oc2nnnn2-c2ccccc2)cc1", "active"),
    ("O=C(C1CCCCC1)N1CCN(S(=O)(=O)c2ccc(Cl)cc2)CC1", "inactive"),
    ("Cc1cc(NC(=O)Cc2ccsc2)ccc1Br", "inactive"),
    ("Cc1cc2cc(CNC(=O)c3ccco3)ccc2n1C", "inactive"),
    ("O=C(Nc1nc(-c2ccc(Cl)s2)cs1)c1cccs1", "inactive"),
]

Request: Hi, do you know how Fc1ccc(-n2nnc(-c3cccnc3)n2)cc1 came out in this test?
Response: active

Request: So what was the verdict on Cc1ccc(C)c(-n2c(CNC(=O)c3ccco3)nnc2SCC(=O)N2CCc3ccccc32)c1 in this test?
Response: inactive

====

biological target: Luciferin 4-monooxygenase (Photinus pyralis); assay: inhibition of purified Photinus pyralis luciferase – biochemical, luminescence, dose response (AID 1891)
Sequence (P08659 whole entry): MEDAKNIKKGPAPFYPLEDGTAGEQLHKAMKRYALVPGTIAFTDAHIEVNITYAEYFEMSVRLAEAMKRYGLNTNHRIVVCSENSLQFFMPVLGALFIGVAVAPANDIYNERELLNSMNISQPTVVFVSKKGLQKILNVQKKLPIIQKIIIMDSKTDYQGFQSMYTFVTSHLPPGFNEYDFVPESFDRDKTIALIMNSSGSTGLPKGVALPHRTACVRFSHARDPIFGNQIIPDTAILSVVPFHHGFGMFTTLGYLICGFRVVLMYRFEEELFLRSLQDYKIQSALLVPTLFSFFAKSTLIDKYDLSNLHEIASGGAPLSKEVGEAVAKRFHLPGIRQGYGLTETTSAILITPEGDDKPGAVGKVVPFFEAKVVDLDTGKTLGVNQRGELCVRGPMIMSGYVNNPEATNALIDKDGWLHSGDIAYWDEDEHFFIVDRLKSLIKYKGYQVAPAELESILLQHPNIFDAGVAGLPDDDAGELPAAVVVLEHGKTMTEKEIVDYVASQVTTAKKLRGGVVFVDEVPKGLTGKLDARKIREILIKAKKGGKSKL
Calls of active or inactive are those of the source.
quantity.name: EC50

# compound, quantity.name, reading
data = [
    ("O=C(Nc1ccc(Cl)cc1)OCc1cc(-c2ccccc2Cl)on1", "EC50", "> 112 µM (not active)"),
    ("COc1cc2c(cc1OC)-c1cc(Nc3ccc(N(C)C)cc3)nc(=O)n1CC2", "EC50", "> 112 µM (not active)"),
    ("CCOC(=O)c1c(C)oc2cc(Br)c(OC(=O)N3CCOCC3)cc12", "EC50", "> 112 µM (not active)"),
    ("CC(C)[C@@H](CO)NC(=O)c1ccc2c3n(nc2c1)-c1ccccc1CO3", "EC50", "6.1 µM (active)"),
    ("COC(=O)C1(C(F)(F)F)N=C2Sc3ccccc3N2C(N2CCOCC2)=N1 (centres undefined)", "EC50", "> 112 µM (not active)"),
    ("CCC(=O)Nc1cccc(NC(=O)c2ccccc2Cl)c1", "EC50", "> 112 µM (not active)"),
    ("O=C(Cn1cnc2c(cnn2-c2ccccc2)c1=O)OCc1ccccc1", "EC50", "> 112 µM (not active)"),
    ("Cc1cc(O)nc2ccc(S(=O)(=O)NC3CCCCC3)cc12", "EC50", "> 112 µM (not active)"),
    ("Cc1ncsc1C(=O)Nc1nc2c(s1)CCCC2", "EC50", "3.81 µM (active)"),
    ("CC1CC(=O)NN=C1c1ccc(N(C)C)c([N+](=O)[O-])c1 (centres undefined)", "EC50", "> 112 µM (not active)"),
]

Luciferin 4-monooxygenase (Photinus pyralis) assay, compound COc1cc(/C=N/Nc2nncn2/N=C/c2ccc(O)c(OC)c2)ccc1O , recorded EC50 = 0.658 µM (active)

Tested on Luciferin 4-monooxygenase (Photinus pyralis), the item COC(=O)c1ccc(/C=C/c2nc(O)c3ccccc3n2)cc1 showed EC50 equal to 17.7 µM (active)

Entry Oc1cccc(-c2nc3ccccc3s2)c1 ; assay system Luciferin 4-monooxygenase (Photinus pyralis); EC50 recorded at 1.83 µM (active)

Value sought: EC50, system Luciferin 4-monooxygenase (Photinus pyralis), item CCOc1ccc(OCC(=O)Nc2nccs2)cc1 . Result: 5.61 µM (active)

====

target: DNA repair protein RAD52 homolog (Homo sapiens); format: functional, biochemical
Sequence (P43351 whole entry): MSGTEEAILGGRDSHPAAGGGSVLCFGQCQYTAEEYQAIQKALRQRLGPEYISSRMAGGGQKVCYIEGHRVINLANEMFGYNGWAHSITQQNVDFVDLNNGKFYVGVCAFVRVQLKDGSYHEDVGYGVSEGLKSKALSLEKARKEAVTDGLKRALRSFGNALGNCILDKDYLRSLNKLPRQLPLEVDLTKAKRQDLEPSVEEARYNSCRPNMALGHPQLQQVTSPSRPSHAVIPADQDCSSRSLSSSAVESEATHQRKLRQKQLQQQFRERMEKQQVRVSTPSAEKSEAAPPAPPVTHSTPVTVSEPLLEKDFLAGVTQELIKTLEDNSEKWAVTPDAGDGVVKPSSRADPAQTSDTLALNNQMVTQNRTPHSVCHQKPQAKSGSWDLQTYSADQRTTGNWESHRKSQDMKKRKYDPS
Activity calls are given as the source filed them.
quantity.name: AC50

# molecule, reading
data = [
    ("CCn1c(C)c(C(C)=O)c(NCc2ccccc2)nc1=S", "11 µM (active)"),
    ("CN1CCN(C2Cc3cc(Cl)ccc3Sc3cc(F)ccc32)CC1 (centres undefined)", "18.1 µM (active)"),
    ("CCN1CCN(c2ccc(N)c(C)c2)CC1", "3.46 µM (active)"),
]

Could you now look at the following molecule, please?
Per the record, Cc1nccc2cc3[nH]c4ccccc4c3cc12 has AC50 of 1.96 µM (active)

====

target: Polyadenylate-binding protein 1 (Homo sapiens, UniProt P11940); experiment: MLLE binding blockers, Cy5 peptide tracer – biochemical, fluorescence polarization, Cy5-PAM2 peptide, secondary, miRNA deadenylation inhibitor project, dose response (AID 602260); type: functional; details: read-out: IC50_Mean
Sequence (P11940 whole entry): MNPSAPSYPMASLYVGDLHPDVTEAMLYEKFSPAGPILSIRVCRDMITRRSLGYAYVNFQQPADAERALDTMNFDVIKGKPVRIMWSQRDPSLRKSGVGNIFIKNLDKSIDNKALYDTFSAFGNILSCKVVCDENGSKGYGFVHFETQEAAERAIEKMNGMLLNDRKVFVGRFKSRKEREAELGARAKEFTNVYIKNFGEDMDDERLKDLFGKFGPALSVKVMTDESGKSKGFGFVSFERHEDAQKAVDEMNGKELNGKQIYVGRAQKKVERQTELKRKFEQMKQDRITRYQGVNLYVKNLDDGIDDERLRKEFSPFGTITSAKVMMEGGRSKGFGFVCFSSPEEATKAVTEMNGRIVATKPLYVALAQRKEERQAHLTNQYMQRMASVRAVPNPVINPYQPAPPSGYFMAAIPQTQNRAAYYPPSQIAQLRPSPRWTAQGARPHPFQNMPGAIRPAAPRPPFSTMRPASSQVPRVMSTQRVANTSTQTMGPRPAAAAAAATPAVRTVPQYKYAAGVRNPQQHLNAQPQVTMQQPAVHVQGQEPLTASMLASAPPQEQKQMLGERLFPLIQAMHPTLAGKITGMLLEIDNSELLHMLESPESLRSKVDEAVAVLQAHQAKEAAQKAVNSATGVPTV
Active and inactive are the calls of the source.
Property: IC50; scope: individual compounds

# compound.smiles, IC50
records = [
    ("O=C1c2ccccc2C(=O)N1CC1=CCS(=O)(=O)C1", "> 66 µM (inactive)"),
    ("Cc1ccc(C(=O)NC(=S)Nc2ccc(N3CCN(C(=O)c4ccco4)CC3)cc2)cc1", "> 66 µM (inactive)"),
]

We now examine a further compound.
IC50 in this record for Cn1nc(C(C)(C)C)cc1C(=O)Sc1cccc(Br)c1 : > 66 µM (inactive)

====

target: Calpain-2 catalytic subunit (Sus scrofa, UniProt P43367); test: m-calpain protease blockers, concentration series – biochemical, fluorogenic peptide substrate, dose response (AID 1420); format: functional
Sequence (P43367 whole entry): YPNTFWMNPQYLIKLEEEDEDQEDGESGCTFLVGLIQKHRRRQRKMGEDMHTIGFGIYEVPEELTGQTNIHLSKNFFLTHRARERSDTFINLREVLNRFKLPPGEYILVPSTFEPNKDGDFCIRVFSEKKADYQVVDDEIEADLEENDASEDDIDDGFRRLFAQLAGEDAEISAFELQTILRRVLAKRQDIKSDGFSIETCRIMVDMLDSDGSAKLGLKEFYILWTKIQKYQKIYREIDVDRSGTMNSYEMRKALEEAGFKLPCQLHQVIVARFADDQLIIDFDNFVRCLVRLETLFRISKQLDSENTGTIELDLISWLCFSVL
The source made the active and inactive calls.
Measured IC50 of individual entries

# compound, reading
records = [
    ("Cc1ccc(SCC(=O)c2sc(-c3ccccc3)nc2C)cc1", "6.06 µM (not active)"),
    ("COc1ccc(-n2c(CNc3ccc(C)cc3)nnc2SCC(=O)Nc2nc(-c3ccccc3)cs2)cc1", "21.4 µM (active)"),
    ("Cc1cccc(NC(S)=NCc2cccs2)c1", "> 50 µM (not active)"),
]

Sample N=C(NNC(=O)c1ccccc1)c1cc2ccccc2oc1=O ; IC50 observed: 48.5 µM (not active)

IC50 reading for COc1ccc(N2CCN(C(c3ccccc3)c3nnnn3Cc3ccc(F)cc3)CC2)cc1 (stereo unspecified) : 5 µM (not active)

Summary for this compound, O=C(Oc1ccc(-c2ccccc2)cc1)N1CCCCC1 : IC50 is 1.11 µM (not active)

compound CCN1C(=O)C(CC(=O)Nc2ccc(Br)cc2)N(CCCc2ccccc2)C1=S (stereo unspecified) , IC50 observed: 5.99 µM (not active)

The compound CC(C)Cn1c(N)c(C(=O)COC(=O)c2cccc(F)c2)c(=O)n(C)c1=O showed IC50 equal to 16.2 µM (not active)

CCOc1ccc(CCNC(=O)CN2CCN(Cc3ccc(F)cc3)C2=O)cc1OCC yielded IC50 of > 50 µM (not active)

The compound listed as Cc1c(C(=O)N2CCC(C)CC2)sc2ncnc(N3CCN(c4ccccc4)CC3)c12 shows IC50 equal to 19 µM (not active)

Form field IC50, entry O=C(Cc1ccccc1Cl)NCCCn1ccnc1 : > 50 µM (not active)

====

Molecular target: Caspase-3 (Homo sapiens, UniProt P42574);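 also: Dose-response selectivity test against caspase-3 for candidate inhibitors of sentrin-specific proteases (SENPs)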
Sequence (P42574 whole entry): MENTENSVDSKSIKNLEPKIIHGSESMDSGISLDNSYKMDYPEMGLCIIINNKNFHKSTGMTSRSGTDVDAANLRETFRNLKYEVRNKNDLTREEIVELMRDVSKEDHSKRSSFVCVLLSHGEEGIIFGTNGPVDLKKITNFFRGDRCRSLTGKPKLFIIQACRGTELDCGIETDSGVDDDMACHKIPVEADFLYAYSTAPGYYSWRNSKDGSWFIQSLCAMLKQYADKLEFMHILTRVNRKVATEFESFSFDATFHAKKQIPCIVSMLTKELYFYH
Format: functional
Active and inactive are the calls of the source.
# valid calls are active, inactive; nothing else

Would you please look over these solved cases?
# compound, assigned.class
data = [
    ("Brc1ccc(-c2cn3nc4c(nc3n2)CCCC4)cc1", "active"),
    ("COc1cccc(C(=O)NC(=S)Nc2ccc(N(C)C)cc2)c1", "active"),
    ("O=[N+]([O-])c1ccc(O)c(/C=N/NC(=S)Nc2ccc(Cl)cc2Cl)c1", "active"),
    ("COC(=O)c1ccc(-c2ccc(F)cc2)nc1C", "active"),
]

Request: Which outcome was entered for the compound COc1ccc(C(C[N+](=O)[O-])c2c(C)[nH]n(-c3ccccc3)c2=O)cc1 (stereo unspecified) in this test?
Response: inactive

Request: Please state the recorded outcome for this compound: O=C(COC(=O)c1ccc([N+](=O)[O-])s1)Nc1cccc(S(=O)(=O)/N=C2/CCCCCN2)c1
Response: active
